Where these numbers come from: PubChem BioAssay (NCI)

System: A549/ATCC NSCLC
assayExplanation: NCI-60 one-dose screen, 48 h
experimentalSetup: 10 µM unless noted
Experimental: Growth inhibition of the A549/ATCC human Non-Small Cell Lung tumor cell line is measured as a screen for anti-cancer activity. Cells are grown in 96 well plates and exposed to the test compound for 48 hours. Compounds are tested at a single concentration, which is 10^-5 M for most compounds. The reported endpoint is percent growth (GI% or GIPRCNT), where numbers from 0 - 100% represent growth inhibition, and numbers from -100% - 0 represent cell death. […]
The panel holds about 83,000 compounds, 20% with a hit somewhere; the sample as a whole holds those more often. The source made the active and inactive calls. The calls were made as follows: active = growth percent below 10; inactive = the rest.
Respond with a class label; see active, inactive

-- ask Could you kindly confirm the outcome this assay logged for COc1ccc(N)cc1C(=O)Nc1cccc(-c2cc(=O)c3c(OC)c(OC)c(OC)cc3o2)c1 ?
-- reply inactive

-- ask Could you kindly confirm the outcome this assay logged for O=C(Nc1cc(Cl)cc(Cl)c1)Nc1ccc2oc(=O)ccc2c1 ?
-- reply inactive

-- ask Could you kindly confirm the outcome this assay logged for C#C[C@]1(O)CC[C@H]2[C@@H]3CC=C4c5sc(Nc6cccc(Cl)n6)nc5CC[C@]4(C)[C@H]3CC[C@@]21C ?
-- reply inactive

-- ask Could you kindly confirm the outcome this assay logged for Oc1ccc(CSc2nnc(-c3cnccn3)n2-c2ccccc2)c2cccnc12 ?
-- reply inactive

-- ask Could you kindly confirm the outcome this assay logged for C=C(C)[C@@H]1CC[C@]2(C(=O)ON)CC[C@]3(C)[C@H](CC[C@@H]4[C@@]5(C)C/C(=C/c6ccc(Br)cc6)C(=O)C(C)(C)[C@@H]5CC[C@]43C)[C@@H]12 ?
-- reply inactive

-- ask Could you kindly confirm the outcome this assay logged for Fc1ccc(-c2cc3nc(C(Cl)Cl)nc(-c4cccs4)n3n2)cc1 ?
-- reply active

-- ask Could you kindly confirm the outcome this assay logged for CCN(CC)Cc1c(-c2cccc(OC(F)(F)F)c2)[nH]c2ccc(N3CCCC3)cc2c1=O ?
-- reply inactive

-- ask Could you kindly confirm the outcome this assay logged for Oc1ccccc1-c1nnc(SCc2ccc(O)c3ncccc23)o1 ?
-- reply inactive

-- ask Could you kindly confirm the outcome this assay logged for CC(C)=CCc1c2c(c(O)c3c1O[C@]14C(=C[C@@H]5C[C@H]1C(C)(C)O[C@@]4(C/C=C(/C)C(=O)O)C5=O)C3=O)CC(O)C(C)(C)O2 (stereo partly drawn) ?
-- reply active

-- ask Could you kindly confirm the outcome this assay logged for COc1cc2c3c(n(CCCNC4CCCCC4)c(=O)c2cc1OC)-c1cc2c(cc1C3=O)OCO2 ?
-- reply active

-- ask Could you kindly confirm the outcome this assay logged for Cc1ccccc1NC1CC(=O)N(c2ccc(Cl)cc2Cl)C1=O (stereo not drawn) ?
-- reply inactive

-- ask Could you kindly confirm the outcome this assay logged for COc1cc(/C=C/C(=O)c2ccc(N3CCN(C)CC3)cc2)ccc1F ?
-- reply inactive

-- ask Could you kindly confirm the outcome this assay logged for COc1cc(CNC(=O)Cc2ccccc2[N+](=O)[O-])ccc1OCC(=O)NO ?
-- reply inactive

-- ask Could you kindly confirm the outcome this assay logged for O=C1c2c(c3c4cccnc4[nH]c3c3ccc4ccccc4c23)C(=O)N1CCN1CCNCC1 ?
-- reply inactive

-- ask Could you kindly confirm the outcome this assay logged for C#C[C@]1(O)CC[C@H]2[C@@H]3CC=C4c5sc(-c6cccc(F)c6)nc5CC[C@]4(C)[C@H]3CC[C@@]21C ?
-- reply inactive

-- ask Could you kindly confirm the outcome this assay logged for CCCC(=O)NC(c1cccnc1)c1cc(Cl)c2cccnc2c1O (stereo not drawn) ?
-- reply inactive

-- ask Could you kindly confirm the outcome this assay logged for Oc1ccccc1/C=N/Nc1nc(N/N=C/c2ccccc2O)nc(N2CCOCC2)n1 ?
-- reply inactive

-- ask Could you kindly confirm the outcome this assay logged for Cc1occc1-c1nc2s/c(=C\c3cn(-c4ccccc4)nc3-c3ccccc3)c(=O)n2n1 ?
-- reply inactive

----------
Tested on: IGROV1 ovarian
assayExplanation: NCI-60 one-dose screen, 48 h
experimentalSetup: 10 µM unless noted
The panel holds about 83,000 compounds, 20% with a hit somewhere; the sample as a whole holds those more often. The source made the active and inactive calls. The calls were made as follows: active = growth percent below 10; inactive = the rest.
Respond with a class label; see Yes = active, No = inactive

-- ask Could you kindly confirm the outcome this assay logged for CC(=O)NC(C)(C)C(=O)N[C@@H](C)C(=O)NC(C)(C)C(=O)N[C@@H](C)C(=O)NC(C)(C)C(=O)N[C@@H](C)C(=O)N[C@@H](CCC(N)=O)C(=O)NC(C)(C)C(=O)N[C@H](C(=O)NC(C)(C)C(=O)NCC(=O)N[C@@H](CC(C)C)C(=O)NC(C)(C)C(=O)N1CCC[C@H]1C(=O)N[C@H](C(=O)NC(C)(C)C(=O)NC(C)(C)C(=O)N[C@@H](CCC(N)=O)C(=O)N[C@@H](CCC(N)=O)C(=O)N[C@H](CO)CC1CCCCC1)C(C)C)C(C)C ?
-- reply No

-- ask Could you kindly confirm the outcome this assay logged for COc1ccc(-c2ccnc3c(C#N)c(Nc4ccccc4)nn23)cc1OC ?
-- reply No

-- ask Could you kindly confirm the outcome this assay logged for CCC(C)[C@H]1OC(=O)[C@H](C(C)C)N(C)C(=O)[C@@H](C(C)C)OC(=O)[C@H](C(C)C)N(C)C(=O)[C@@H](C(C)CC)OC(=O)[C@H](C(C)C)N(C)C1=O (some centres not stated) ?
-- reply No

-- ask Could you kindly confirm the outcome this assay logged for COc1cc(NC2=C(Cl)C(=O)c3nc(C)ccc3C2=O)cc(OC)c1 ?
-- reply Yes

-- ask Could you kindly confirm the outcome this assay logged for COc1cc2cc(Oc3ccc(NC(=O)Nc4cccc(C(F)(F)F)c4)cc3)c(C)nc2cc1OCCN(C)C ?
-- reply No

-- ask Could you kindly confirm the outcome this assay logged for CN1CCN(c2nc(-c3csc(-c4ccncc4)n3)cc3ccccc23)CC1 ?
-- reply No

-- ask Could you kindly confirm the outcome this assay logged for C=C1C(=O)O[C@@H]2C[C@@H](C)[C@H](OC)CC(=O)[C@](C)(OC(C)=O)C[C@H](OC(=O)/C(C)=C\C)[C@@H]12 ?
-- reply No

-- ask Could you kindly confirm the outcome this assay logged for CCCC(=O)NC(c1cccnc1)c1ccc2c(C)ccnc2c1O (configuration not stated) ?
-- reply No

-- ask Could you kindly confirm the outcome this assay logged for CC(=O)Nc1nc2c(s1)C1=CC[C@H]3[C@@H]4CC[C@H](C(C)=O)[C@@]4(C)CC[C@@H]3[C@@]1(C)CC2 ?
-- reply No

-- ask Could you kindly confirm the outcome this assay logged for O=C(Nc1ccc(-c2nc(-c3cccc(O)c3)c(-c3ccnc(Br)c3)[nH]2)cc1)c1ccccc1 ?
-- reply No

-- ask Could you kindly confirm the outcome this assay logged for CCc1ccc(NC(=O)N[C@@H](Cc2cccc(F)c2)C(=O)N[C@@H]2C(=O)N3CCC[C@H]3C(=O)N3CCCC[C@H]3C(=O)N[C@@H](C)C(=O)N3C[C@H](C)C[C@H]3C(=O)O[C@H]2C)c(F)c1 ?
-- reply No

-- ask Could you kindly confirm the outcome this assay logged for Oc1ccc(CSc2nnc(-c3ccccc3)n2-c2ccccc2)c2cccnc12 ?
-- reply Yes

-- ask Could you kindly confirm the outcome this assay logged for CS(=O)c1nccc(-c2c(-c3ccc(F)c(OCc4ccc(F)cc4)c3)nc3sccn23)n1 (configuration not stated) ?
-- reply No

-- ask Could you kindly confirm the outcome this assay logged for COc1cc2c3c(n(CCCNC4CCCC4)c(=O)c2cc1OC)-c1cc2c(cc1C3=O)OCO2 ?
-- reply Yes

-- ask Could you kindly confirm the outcome this assay logged for CCOC(=O)c1c(NC(=O)c2ccc(F)cc2F)sc2c1CCC(=O)C2 ?
-- reply No

-- ask Could you kindly confirm the outcome this assay logged for COc1cc2oc(-c3cccc(NC(=O)c4cc(NC(=O)[C@H](C)N)ccc4Cl)c3)cc(=O)c2c(OC)c1OC ?
-- reply No

-- ask Could you kindly confirm the outcome this assay logged for O=C(CN1C(=O)S/C(=C\c2ccccc2)C1=O)Nc1ccc(C(=O)/C=C/c2cc3ccccc3nc2Cl)cc1 ?
-- reply No

-- ask Could you kindly confirm the outcome this assay logged for O=C(CSc1ccc(-c2nc3ccccc3[nH]2)cn1)N1CCN(c2ccccc2F)CC1 ?
-- reply No

-- ask Could you kindly confirm the outcome this assay logged for O=C1c2c(c3c4cccnc4[nH]c3c3ccc4ccccc4c23)C(=O)N1CCN1CCOCC1 ?
-- reply No

-- ask Could you kindly confirm the outcome this assay logged for Nc1nc(-c2cccc([N+](=O)[O-])c2)c(N=Nc2ccccc2[N+](=O)[O-])s1 ?
-- reply Yes

-- ask Could you kindly confirm the outcome this assay logged for CCN1CCN(c2cc(C(=O)Nc3nc4ccc(Oc5ccnc(C(=O)NC)c5)cc4s3)cc(C(F)(F)F)c2)CC1 ?
-- reply No

-- ask Could you kindly confirm the outcome this assay logged for COc1cc(/C=C/C(=O)c2ccc(NC(=O)COc3cccc4cccnc34)cc2)cc(OC)c1OC ?
-- reply No

-- ask Could you kindly confirm the outcome this assay logged for CC(C)c1nn(-c2ccccc2)c(N2CCCCC2)c1/C=N/NC(N)=S ?
-- reply No

-- ask Could you kindly confirm the outcome this assay logged for CCCCCCNC(=O)Oc1ccc(/C(=C(/C)c2ccccc2)c2ccc(OCCN(C)C)cc2)cc1 ?
-- reply No

-- ask Could you kindly confirm the outcome this assay logged for Cc1ccc(-c2nnc3sc(C4=Cc5ccccc5OC=C4)nn23)cc1 ?
-- reply No

-- ask Could you kindly confirm the outcome this assay logged for CCn1c2ccc(/C=N/OCCCN(C)C)cc2c2cc(/C=N/OCCCN(C)C)ccc21 ?
-- reply Yes

-- ask Could you kindly confirm the outcome this assay logged for COc1ccc(S(=O)(=O)NCCCNc2nccc(-n3cnc4ccccc43)n2)cc1 ?
-- reply No

-- ask Could you kindly confirm the outcome this assay logged for CCOC(=O)c1c(NCC(=O)Nc2cccc(Cl)c2)sc2c1CCCC2 ?
-- reply No

-- ask Could you kindly confirm the outcome this assay logged for O=C1c2c(c3c4cccnc4[nH]c3c3ccc4ccccc4c23)C(=O)N1CCN1CCNCC1 ?
-- reply No

-- ask Could you kindly confirm the outcome this assay logged for CCOC(=O)/C=c1\sc2n(c1=O)C1C(NN=2)N(CC)C(=O)N1CC (configuration not stated) ?
-- reply No

-- ask Could you kindly confirm the outcome this assay logged for Cc1nc(-c2cc3ccccc3c(N3CCN(C)CC3)n2)cs1 ?
-- reply No

-- ask Could you kindly confirm the outcome this assay logged for Cc1ccc(NC(=O)c2cccc(CN3CCN(C)CC3)c2)cc1Oc1ccc(-c2[nH]nc3ncnc(N)c23)cc1 ?
-- reply No
